# assay_protocol: Single ascending dose (SAD) pharmacokinetics in healthy volunteers
# Format: in vivo, human
# condition_label: human, plasma, po, 25 mg, single oral dose 25 mg, plasma; read-out: AUCinf, geometric mean (Geo CV%)
parameter: AUC(0-inf) (ng·h/mL)
State just the number; it will be interpreted in ng·h/mL.

[in] Recorded AUC(0-inf) of CC(=O)N1CCC(COc2cc(F)c3c(=O)[nH]c(CSC4CCOCC4)nc3c2)CC1 [RBN‐3143] , please.
[out] 734

* * *

# assay_protocol: Pantoprazole (PPI) effect on RBN-3143 pharmacokinetics, cross-over
# Assay type: in vivo, human
# condition_label: human, plasma, po, single 500 mg oral dose, fasted with pantoprazole 40 mg QD, N=12, linear mixed-effects model; read-out: AUClast, GLSM
parameter: AUC(0-t) (ng·h/mL)
Give a bare numeral; the unit ng·h/mL is implied.

[in] # get_value(readout='AUC(0-t)', item= CC(=O)N1CCC(COc2cc(F)c3c(=O)[nH]c(CSC4CCOCC4)nc3c2)CC1 )
[out] 13400

The values you see were collected from paper PMC12209991.
